As shown below, each of these compounds has a reported normalized growth value.
Method Summary: chemical genetic growth profiling, strain panel (AID 1159580);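 further: tested at 20 µM; growth read once vehicle control cultures reached saturation at 30 °C; 1 = growth at the plate median or of vehicle wells; lower values mean less growth of the strain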
Test Conditions: S. cerevisiae deletion strains, growth OD, locus YNL006W, strain LST8, hits give low values
Out of some 5,500 compounds screened, about 2,000 (36%) were called active. About 18% were inconclusive and are not listed. Some of the results follow.
Provide a numeric answer; units are not to be included.

# Compound, Readout Value
data = [
    ("O=C(NCC1COc2ccccc2O1)c1ccc(Cl)cc1 (stereo unspecified)", 0.929),
]

Would you mind telling me what normalized growth value was observed for Cc1nc(-c2cccnc2)nc(NCc2ccccc2)c1Cl ?
0.954

Would you mind telling me what normalized growth value was observed for O=C(NCCc1ccncc1)c1ccc(Cl)c(Cl)c1 ?
0.976

Would you mind telling me what normalized growth value was observed for COC(=O)c1cnn(-c2c(Cl)cccc2Cl)c1C=C(C#N)C#N ?
0.955

Would you mind telling me what normalized growth value was observed for O=C(CSCc1csc2ccccc12)Nc1ccc(F)c(Cl)c1 ?
0.978

Would you mind telling me what normalized growth value was observed for COc1cccc(NC(=S)NC2CC(C)CC(C)(C)C2)c1 (stereo unspecified) ?
0.984

Would you mind telling me what normalized growth value was observed for Brc1ccc2[nH]c3c(c2c1)CCC3 ?
0.938

Would you mind telling me what normalized growth value was observed for O=C(Nc1ccccc1Sc1ccc([N+](=O)[O-])cc1[N+](=O)[O-])C(Cl)(Cl)Cl ?
0.991

Would you mind telling me what normalized growth value was observed for Clc1cc(Cl)cc(-c2nc(SCc3ccc(Cl)cc3Cl)n[nH]2)c1 ?
0.965

Would you mind telling me what normalized growth value was observed for O=C(NCC(c1ccccc1)c1c[nH]c2ccccc12)c1ccc(C(F)(F)F)cc1 (stereo unspecified) ?
1.01

Would you mind telling me what normalized growth value was observed for OC1CCN(c2cc(C(F)(F)F)nc3cc(Cl)cc(Cl)c23)CC1 ?
0.968

---

As shown below, each of these compounds has a reported normalized growth value.
Method Summary: chemical genetic growth profiling, strain panel (AID 1159580);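 further: tested at 20 µM; growth read once vehicle control cultures reached saturation at 30 °C; 1 = growth at the plate median or of vehicle wells; lower values mean less growth of the strain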
Test Conditions: S. cerevisiae deletion strains, growth OD, locus YJL128C, strain PBS2, hits give low values
About 2,000 (36%) of roughly 5,500 compounds were called active. Roughly 18% stayed inconclusive and do not appear here. Some of the results follow.
Provide a numeric answer; units are not to be included.

# Chemical String, Readout Value
rows = [
    ("CSc1n[nH]c(-c2cc(C(F)(F)F)cc(C(F)(F)F)c2)n1", 0.859),
    ("Brc1ccc2[nH]c3c(c2c1)CCC3", 0.915),
    ("Cc1csc(NC(=O)Nc2ccc(C(F)(F)F)cc2)c1", 0.932),
    ("O=C(NCCNc1ncc(C(F)(F)F)cc1Cl)C(F)(F)Sc1ccccc1", 0.914),
    ("OC1CCN(c2cc(C(F)(F)F)nc3cc(Cl)cc(Cl)c23)CC1", 0.989),
    ("Clc1cc(Cl)cc(-c2nc(SCc3ccc(Cl)cc3Cl)n[nH]2)c1", 0.964),
]

Would you mind telling me what normalized growth value was observed for O=C(NCCNc1ncc(Cl)cc1C(F)(F)F)C(F)(F)Sc1ccccc1 ?
0.934

Would you mind telling me what normalized growth value was observed for Fc1cccc(Cl)c1CSc1n[nH]c(-c2cc(C(F)(F)F)cc(C(F)(F)F)c2)n1 ?
0.957

Would you mind telling me what normalized growth value was observed for COC(=O)c1cnn(-c2c(Cl)cccc2Cl)c1C=C(C#N)C#N ?
0.969

Would you mind telling me what normalized growth value was observed for Cc1csc(NC(=O)Nc2ccc(C(F)(F)F)cc2)c1Cl ?
0.891

meta.source: PubChem BioAssay AID1159580
